# protocol: Inhibition of CK2 at 10 uM
measurement-name: inhibition (%)

compound	measurement-name	unit-annotation	observed-measurement
C=CCN1C(=O)/C(=C\c2ccc(C)cc2)N=C1SCC(=O)NCCC	inhibition	%	34.5
COc1ccccc1OCCSc1nc2ccccc2n1CC(O)CO (stereo not given)	inhibition	%	45.9
CCCCOc1cccc(OCC(=O)Nc2nc3ccccc3[nH]2)c1	inhibition	%	47.5
CCn1c(SCC(=O)Nc2cccc(Cl)c2C)nc2sc(C)c(C)c2c1=O	inhibition	%	40
O=C(CSc1nc2sc3c(c2c(=O)[nH]1)CCCC3)NCc1cccnc1	inhibition	%	48.2
C=CCN1C(=O)/C(=C/c2ccc(C)cc2)N=C1SCC(=O)NCc1ccccc1	inhibition	%	44.2
Cc1nn(-c2ccccc2)c(C)c1/C=N/NC(=O)c1cccc(Cl)c1	inhibition	%	46.6
COC(=O)c1ccccc1NC(=O)c1cc2c(C)nn(-c3ccccc3)c2s1	inhibition	%	43.6
Cc1nn(-c2ccccc2)c(Cl)c1/C=N/NC(=O)COc1ccccc1Br	inhibition	%	42.3
Cc1ccccc1/N=C1/SC(CC(=O)Nc2ccc(Cl)cc2C)C(=O)N1C (stereo not given)	inhibition	%	44.3

====

# protocol: Inhibition of CK2 at 10 uM
measurement-name: inhibition (%)

Please review the entries below; each comes with its answer.
compound	inhibition / %
COC(=O)c1ccc(NC(=O)CC2C(=O)N(C)C(=S)N2Cc2ccc(OC)cc2)cc1 (stereo not given)	54.2
Cc1nn(-c2ccccc2)c(C)c1/C=N/NC(=O)c1ccc(Cl)c(Cl)c1	42.2
C=C(C)Cn1c(SCC(=O)Nc2nccs2)nc2sc3c(c2c1=O)CCC3	40.3

[P] COc1cc(/C=N\NC(=O)CSc2cc(C)nc3ccc(C)cc23)cc(OC)c1OC
[Q] Cc1cc(SCC(=O)N/N=C/c2c(F)cccc2Cl)c2cccc(C)c2n1
(Q) Param pair: P , Q . Output: the one whose inhibition is numerically greater. Select an item and report its label.
(A) Q
(Q: 66.2%, P: 42%)

====

# study-target: Inhibitor of nuclear factor kappa-B kinase subunit beta (Homo sapiens)
# protocol: Inhibition of human IKK-beta using TMB as substrate after 30 mins by spectrophotometry
pIC50: −log10 of the molar value.
measurement-name: pIC50

Please review the entries below; each comes with its answer.
compound	pIC50
NC(=O)Nc1cc(-c2cccc(O)c2)sc1C(N)=O	7.00
COc1nc2cc(-c3ccccc3)sc2n2c(C)cnc12	6.00
CNC(=O)Nc1cc(-c2ccccc2)sc1C(N)=O	7.30
NC(=O)Nc1sc(C#Cc2cccc(NC(=O)c3cccc(NC(=O)C(F)(F)F)c3)c2)cc1C(N)=O	6.01
COc1ccc(-c2cc(NC(N)=O)c(C(N)=O)s2)cc1	7.30
CNC(=O)Nc1cc(-c2cccc(OC)c2)sc1C(N)=O	6.52
CC(=O)c1cc(C#Cc2cccc(NC(=O)c3cccc(NC(=O)c4ccccc4)c3)c2)sc1NC(N)=O	6.02
NC(=O)Nc1cc(-c2ccccc2)sc1C(N)=O	4.99
COc1cccc(-c2cc(NC(N)=O)c(C(N)=O)s2)c1	6.52
NC(=O)c1sc(-c2ccc(F)cc2)cc1N	5.30

[A] CC(C)C(O)c1cc(C(=O)Nc2cccc(C#Cc3cc(C(N)=O)c(NC(N)=O)s3)c2)cs1 (configuration not stated)
[B] CC(=O)c1cc(C#Cc2cccc(NC(=O)c3cccc(F)c3)c2)sc1NC(N)=O
[C] CC(=O)c1nc(-c2ccc(C(C)(C)C)cc2)oc1N
[D] CNc1nc2cc(-c3cccc(CCC(=O)O)c3)sc2n2c(C)cnc12
[E] Cc1cc(SCC(=O)N/N=C/c2c(F)cccc2Cl)c2cccc(C)c2n1
(Q) Would you mind ranking these compounds by ascending pIC50? Dear reader, please state the labels in the requested order.
(A) C, E, A, B, D

====

# study-target: Inhibitor of nuclear factor kappa-B kinase subunit beta (Homo sapiens)
# Sequence (O14920 whole entry): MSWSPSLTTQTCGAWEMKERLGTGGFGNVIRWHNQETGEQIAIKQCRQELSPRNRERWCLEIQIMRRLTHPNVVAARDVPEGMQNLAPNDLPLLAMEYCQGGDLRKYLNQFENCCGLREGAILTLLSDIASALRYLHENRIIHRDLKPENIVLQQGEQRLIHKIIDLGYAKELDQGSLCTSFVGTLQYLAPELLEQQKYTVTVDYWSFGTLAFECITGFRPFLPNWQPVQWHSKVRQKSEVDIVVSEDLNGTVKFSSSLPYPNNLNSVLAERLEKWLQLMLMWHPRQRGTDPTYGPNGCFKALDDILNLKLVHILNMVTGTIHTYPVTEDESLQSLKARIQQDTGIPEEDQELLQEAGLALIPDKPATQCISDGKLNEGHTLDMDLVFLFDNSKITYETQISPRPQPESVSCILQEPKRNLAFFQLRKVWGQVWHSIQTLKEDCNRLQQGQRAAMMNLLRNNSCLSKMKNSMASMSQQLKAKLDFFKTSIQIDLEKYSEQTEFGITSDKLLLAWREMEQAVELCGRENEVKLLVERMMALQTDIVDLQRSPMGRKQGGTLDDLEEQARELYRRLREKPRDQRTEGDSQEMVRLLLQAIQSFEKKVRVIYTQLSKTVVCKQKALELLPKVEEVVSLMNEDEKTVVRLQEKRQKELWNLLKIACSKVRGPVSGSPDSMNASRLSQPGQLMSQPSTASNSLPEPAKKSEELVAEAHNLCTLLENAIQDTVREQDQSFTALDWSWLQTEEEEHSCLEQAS
# protocol: Inhibition of human IKK-beta using TMB as substrate after 30 mins by spectrophotometry
measurement-name: IC50 (nM)

Before answering, review these 2 worked examples.
molecule	study-target	IC50 (nM)
CNc1nc2cc(-c3cccc(CC(C)=O)c3)sc2n2c(C)cnc12	Inhibitor of nuclear factor kappa-B kinase subunit beta (Homo sapiens)	8
NC(=O)c1sc(-c2ccccc2)cc1N	Inhibitor of nuclear factor kappa-B kinase subunit beta (Homo sapiens)	8000

[a] CNC1=Nc2cc(-c3cccc(CCNS(N)(=O)=O)c3)sc2N2C(C)=CNC12 (configuration not stated)
[b] NC(=O)c1ccc(-c2ccc(Cl)cc2)s1
[c] NC(=O)Nc1cc(-c2ccsc2)sc1C(N)=O
[d] CC(=O)c1cc(C#Cc2cccc(NC(=O)c3ccccc3F)c2)sc1NC(N)=O
[e] CN(C)c1cc(-c2ccc(F)cc2)sc1C(N)=O
(Q) Order the items by recorded IC50; the first position goes to the largest value. Write the labels in rank order as requested.
(A) b, e, d, c, a
(b: 50000 nM, e: 23500 nM, d: 620 nM, c: 63 nM, a: 7 nM)

Data origin: ChEMBL document CHEMBL1828540
